Each recorded value in this set is attributed to patent US9416115B2.

measured.on: wild-type human cardiac sodium channel, hNav1.5 (Homo sapiens)
Sequence (Q14524 whole entry): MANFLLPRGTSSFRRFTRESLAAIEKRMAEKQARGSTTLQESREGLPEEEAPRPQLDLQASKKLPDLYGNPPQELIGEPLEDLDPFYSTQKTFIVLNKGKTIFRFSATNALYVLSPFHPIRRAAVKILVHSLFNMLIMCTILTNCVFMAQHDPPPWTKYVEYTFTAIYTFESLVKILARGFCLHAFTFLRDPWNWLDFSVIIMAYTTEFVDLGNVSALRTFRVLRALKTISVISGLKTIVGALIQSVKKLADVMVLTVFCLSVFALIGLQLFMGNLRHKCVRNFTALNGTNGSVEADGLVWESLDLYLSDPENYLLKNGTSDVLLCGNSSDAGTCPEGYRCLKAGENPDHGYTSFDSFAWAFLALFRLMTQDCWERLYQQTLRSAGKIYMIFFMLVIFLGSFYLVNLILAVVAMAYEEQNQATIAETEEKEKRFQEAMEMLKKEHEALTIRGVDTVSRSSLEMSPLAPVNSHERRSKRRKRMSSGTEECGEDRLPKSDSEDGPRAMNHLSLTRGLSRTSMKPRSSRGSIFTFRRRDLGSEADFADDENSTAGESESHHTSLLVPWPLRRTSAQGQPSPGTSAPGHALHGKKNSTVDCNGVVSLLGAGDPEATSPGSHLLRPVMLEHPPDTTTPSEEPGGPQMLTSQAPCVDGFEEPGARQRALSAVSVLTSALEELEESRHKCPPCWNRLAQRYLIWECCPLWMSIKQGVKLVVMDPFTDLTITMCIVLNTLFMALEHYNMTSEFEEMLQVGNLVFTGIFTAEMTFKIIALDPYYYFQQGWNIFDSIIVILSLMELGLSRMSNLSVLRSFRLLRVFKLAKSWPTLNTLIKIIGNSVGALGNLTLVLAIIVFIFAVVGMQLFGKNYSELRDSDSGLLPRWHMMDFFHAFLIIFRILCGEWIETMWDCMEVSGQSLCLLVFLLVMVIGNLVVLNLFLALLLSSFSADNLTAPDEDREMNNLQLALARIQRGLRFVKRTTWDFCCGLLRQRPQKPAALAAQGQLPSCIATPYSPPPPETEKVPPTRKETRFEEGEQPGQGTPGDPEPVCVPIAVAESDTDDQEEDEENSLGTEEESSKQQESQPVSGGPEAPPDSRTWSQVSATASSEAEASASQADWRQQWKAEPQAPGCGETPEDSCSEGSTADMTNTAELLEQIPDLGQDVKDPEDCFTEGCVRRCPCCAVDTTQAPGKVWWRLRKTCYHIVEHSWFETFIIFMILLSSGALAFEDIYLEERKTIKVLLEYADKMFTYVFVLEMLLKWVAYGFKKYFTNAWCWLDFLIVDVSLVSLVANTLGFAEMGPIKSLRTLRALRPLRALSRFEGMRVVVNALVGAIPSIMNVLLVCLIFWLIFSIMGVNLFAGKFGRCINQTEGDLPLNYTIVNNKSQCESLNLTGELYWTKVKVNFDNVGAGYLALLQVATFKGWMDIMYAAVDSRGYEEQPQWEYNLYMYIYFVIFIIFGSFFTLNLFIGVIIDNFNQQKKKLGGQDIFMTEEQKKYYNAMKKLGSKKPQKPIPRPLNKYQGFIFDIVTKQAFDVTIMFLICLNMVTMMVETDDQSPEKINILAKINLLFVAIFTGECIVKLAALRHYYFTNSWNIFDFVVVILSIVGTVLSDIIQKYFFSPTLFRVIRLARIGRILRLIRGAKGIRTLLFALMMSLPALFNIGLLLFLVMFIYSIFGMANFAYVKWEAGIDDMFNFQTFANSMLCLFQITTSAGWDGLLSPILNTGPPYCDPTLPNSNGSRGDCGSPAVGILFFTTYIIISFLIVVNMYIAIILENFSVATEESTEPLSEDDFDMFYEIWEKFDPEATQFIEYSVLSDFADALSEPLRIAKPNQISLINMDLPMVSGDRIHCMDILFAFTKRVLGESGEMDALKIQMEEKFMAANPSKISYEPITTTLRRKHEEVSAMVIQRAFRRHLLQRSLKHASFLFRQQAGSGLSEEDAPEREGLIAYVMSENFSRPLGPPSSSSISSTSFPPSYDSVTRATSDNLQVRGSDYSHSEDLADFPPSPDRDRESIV
test.description: Peak INa screening assay (tonic block and use-dependent block)
Format: cell-based
recorded.conditions: use-dependent block of Peak INa, 3 Hz, pulse 50, read-out: Peak UDB 3 Hz 3 uM
attribute.measured: inhibition at 3 µM

[[record]]
structure_string = "FC(F)(F)Oc1ccc(-c2ccc3onc(NCC4CC4)c3c2)cc1"
measured_on = "wild-type human cardiac sodium channel, hNav1.5 (Homo sapiens)"
attribute_measured = "inhibition at 3 µM"
observed = "< 5%"

[[record]]
structure_string = "FC(F)(F)Oc1ccc(-c2ccc3onc(N4CCOCC4)c3c2)cc1"
measured_on = "wild-type human cardiac sodium channel, hNav1.5 (Homo sapiens)"
attribute_measured = "inhibition at 3 µM"
observed = "< 5%"

[[record]]
structure_string = "CN(C)c1noc2ccc(-c3ccc(OC(F)(F)F)cc3)cc12"
measured_on = "wild-type human cardiac sodium channel, hNav1.5 (Homo sapiens)"
attribute_measured = "inhibition at 3 µM"
observed = "5.2%"

[[record]]
structure_string = "O=C1CCCN1CCNc1noc2ccc(-c3ccc(OC(F)(F)F)cc3)cc12"
measured_on = "wild-type human cardiac sodium channel, hNav1.5 (Homo sapiens)"
attribute_measured = "inhibition at 3 µM"
observed = "18%"

[[record]]
structure_string = "Fc1cc(-c2ccc3onc(OCc4ncccn4)c3c2)ccc1Cl"
measured_on = "wild-type human cardiac sodium channel, hNav1.5 (Homo sapiens)"
attribute_measured = "inhibition at 3 µM"
observed = "< 5%"

[[record]]
structure_string = "Cc1cc(-c2ccc(OC(F)(F)F)cc2)cc2c(OCc3ncccn3)noc12"
measured_on = "wild-type human cardiac sodium channel, hNav1.5 (Homo sapiens)"
attribute_measured = "inhibition at 3 µM"
observed = "< 5%"

[[record]]
structure_string = "COc1ccnc(CNc2noc3ccc(-c4ccc(OC(F)(F)F)cc4)cc23)n1"
measured_on = "wild-type human cardiac sodium channel, hNav1.5 (Homo sapiens)"
attribute_measured = "inhibition at 3 µM"
observed = "< 5%"

[[record]]
structure_string = "CCN(CC)C(=O)COc1noc2ccc(-c3ccc(OC(F)(F)F)cc3)cc12"
measured_on = "wild-type human cardiac sodium channel, hNav1.5 (Homo sapiens)"
attribute_measured = "inhibition at 3 µM"
observed = "9.3%"

[[record]]
structure_string = "COc1cc(-c2ccc(OC(F)(F)F)cc2C)cc2c(OCc3ncccn3)noc12"
measured_on = "wild-type human cardiac sodium channel, hNav1.5 (Homo sapiens)"
attribute_measured = "inhibition at 3 µM"
observed = "< 5%"

